composite z-score: recorded values
Test system: Noggin (protein binding on small-molecule microarray)
TEST_DESCRIPTION: Noggin binders on small-molecule microarray, primary screen, biochemical, 635/667 nm fluorescence (AID 1095);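 also: score merges 667 nm feature fluorescence with signal to noise over triplicate slides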
STUDY_CONDITIONS: 635 nm fluorescence, higher = more signal

MOLECULE	composite z-score
O=C1O[C@H](c2ccccc2)[C@H](c2ccccc2)N2[C@H]1[C@@H](C(=O)N1CCN(c3ncccn3)CC1)[C@]1(C(=O)Nc3ccc(C#CC4(O)CCCCCC4)cc31)[C@H]2c1ccc(OCCO)cc1	1.68
N#Cc1ccc(NN2C(C(O)c3ccc(F)cc3)C=CC3C(=O)N(c4ccccc4)C(=O)C32)cc1 (stereo unspecified)	-0.868
COC1OC[C@]2(C)[C@H]3C4=C(CN2C(=O)OC(C)(C)C)[C@H](C)C(CO)C(CO)C4CC[C@@H]13 (stereo partly specified)	-0.05
COC(=O)[C@@]1(Cc2ccc(OC)cc2)[C@H]2c3cc(C(=O)N(C)C)n(Cc4ccc(Cl)c(C(F)(F)F)c4)c3C[C@H]2CN1C(=O)c1ccccc1	-0.0329
CCOC(=O)C[C@H]1[C@H](OC(=O)Cc2ccc3c(c2)OCO3)[C@@H](NC(=O)CC(C)C)c2cc(OCCCO)ccc2N1C(=O)Cc1ccc(OC)cc1	-0.0273

With those in mind, consider the next molecule.
Ask: Consider the molecule COCCOC(=O)N1C(=O)[C@@]2(c3cc(C#Cc4ccc(OC)cc4)ccc31)[C@H](c1ccc(O)cc1)N1[C@H](c3ccccc3)[C@H](c3ccccc3)OC(=O)[C@H]1[C@@H]2C(=O)N1CCCCCCC1 and give its recorded composite z-score.
Reply: 0.332

----------
Test system: Inhibin beta A chain (activin A)
TEST_DESCRIPTION: INHBA (activin A) binders on microarrays, primary screen, biochemical, small-molecule microarray, 635 nm fluorescence scan (AID 1107);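 also: mouse activin A protein probed at 4.33 µg/mL on printed slides; score merges bound-protein fluorescence near 667 nm with spot signal-to-noise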
STUDY_CONDITIONS: small-molecule microarray binding, higher = more signal
EXPERIMENTAL_ENDPOINT: composite z-score
Form: value (number only, do not type unit).

Sample answers from the record:
MOL	composite z-score
O=C1O[C@H](c2ccccc2)[C@H](c2ccccc2)N2[C@H]1[C@@H](C(=O)O)[C@]1(C(=O)Nc3ccc(C#CC4=CCCCC4)cc31)[C@H]2c1ccc(O)cc1	0.855
CCOC(=O)C[C@H]1[C@H](OC(=O)Cc2ccc3c(c2)OCO3)[C@@H](NC(=O)CC(C)C)c2cc(OCCCO)ccc2N1C(=O)Cc1ccc(OC)cc1	0.26

Ask: Identify composite z-score associated with the compound COC(=O)c1nc2oc1CC[C@@H](CO)NC(=O)N(C)Cc1cnnn1C[C@H](Cc1ccccc1)NC2=O
Reply: 0.139

----------
# key: entry, value: z-score
TEST_DESCRIPTION: A549 lung cancer cell viability effects, profiling panel, resazurin fluorescence, 24 h, PK04 Diversity Set (AID 1171); also: test concentration not given here
STUDY_CONDITIONS: higher = more signal, called active from +8 up or from −8 down
No unit in the answer, please; the number alone is enough.

COMPOUND	z-score
COCCOC(=O)N1C(=O)[C@@]2(c3cc(C#CCCO)ccc31)[C@H](c1ccccc1OCCO)N1[C@H](c3ccccc3)[C@H](c3ccccc3)OC(=O)[C@H]1[C@@H]2C(=O)Nc1nc2ccccc2s1	0.854

Ask: Entry CC(C)OC(=O)C=C1C[C@@H](c2ccc(C(F)(F)F)cc2)O[C@@H](c2ccc(C(F)(F)F)cc2)O1 needs its z-score filled in; supply it.
Reply: 0.452

Ask: For the compound COCCCNC(=O)[C@]1(CCS(=O)(=O)c2ccccc2)N=C(c2ccc(OCCCO)cc2)O[C@@H]1c1ccccc1N=[N+]=[N-] , report z-score.
Reply: 0.265

Ask: State its z-score for this compound: CC(c1ccccc1)C(O)C1C=CC2C(=O)N(c3ccccc3)C(=O)C2N1Nc1ccc([N+](=O)[O-])cc1 (centres undefined)
Reply: 1.07

----------
Tested on: Sam68 (KHDRBS1)
TEST_DESCRIPTION: Sam68 small-molecule binders, primary screen, biochemical, small-molecule microarray, 635 nm fluorescence (AID 1125);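 also: score merges 667 nm channel intensity with signal to noise over triplicate slides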
STUDY_CONDITIONS: small-molecule microarray binding, higher = more signal
The following compounds are shown together with reported composite z-score values.
Write no unit; give the number alone.

Recorded composite z-score, per entry:
COMPOUND	REPORTED_VALUE
[N-]=[N+]=NCc1ccccc1[C@H]1OC(c2ccc(OCCCO)cc2)=N[C@@]1(CCS(=O)(=O)c1ccccc1)C(=O)NCC(O)CO (stereo partly specified)	1.06
CCCCCCc1nc(C2CC2)cc2c1[Si](C(C)C)(C(C)C)OC2	-0.826
CC(C)N1CC=CC23O[C@@H]4C=CCOC(=O)[C@@H]4[C@H]2C(=O)N(CCCO)[C@@H]3C1=O (stereo partly specified)	0.234
COC(=O)c1ccc([C@H](NC(=O)c2ccco2)[C@]2(C)C[C@H]2C2CCCCC2)cc1	-0.552
COC(=O)[C@H](Cc1ccccc1)N1CC(/C=C/C2CC2)=C[C@H]1[C@H](O)Cc1ccccc1	1.2

Ask: Recall and state the measured composite z-score for C=C(/C(=C/C[C@H](OC(C)=O)c1cccc(OCCO)c1)c1cnc2ccccc2c1)C(C)C .
Reply: 0.615

Ask: Identify the reported composite z-score for the following entry. C=CCC(OC(C)=O)[C@@H]1[C@@H](N(Cc2cc3ccccc3o2)C(=O)c2ccc(-c3ccccc3)cc2)c2cc(OCCCO)ccc2N1C(=O)c1ccc2ccccc2c1 (stereo partly specified)
Reply: 0.095

Ask: Identify measured composite z-score associated with O=C(N1CCCCC1)[C@@]1(CCS(=O)(=O)c2ccccc2)COC(c2ccc(OCCCO)cc2)=N1
Reply: 1.31

Ask: State its composite z-score: NCCCCCCNC(=O)[C@@H]1C[C@@H]2C(=O)N[C@@H](CCCCN)C(=O)N2[C@@H]1c1cccc(OCCO)c1
Reply: 1.2

Ask: In one line, give reported composite z-score of the entry C=CCOC(=O)[C@H]1[C@@H]2C(=O)O[C@@H](c3ccccc3)[C@@H](c3ccccc3)N2[C@@H](c2ccc(OCCOC(=O)[C@@H]3C[C@@H]4C(=O)N5CCC[C@H]5C(=O)N4[C@@H]3c3ccc(O)cc3)cc2)[C@]12C(=O)Nc1ccc(I)cc12 .
Reply: 0.27

Ask: # return recorded composite z-score for input CC(=O)NCCCC[C@@H]1NC(=O)[C@@H]2C[C@H](C(=O)NCCCC[N+](C)(C)C)[C@H](c3ccc(O)cc3)N2C1=O
Reply: 1.29

----------
List of z-score values.
TEST_DESCRIPTION: basal HepG2 mitochondrial membrane potential changes, profiling panel, cell-based, JC-1 fluorescence, 24 h, 100 nL compound (AID 1167); also: test concentration not given here
STUDY_CONDITIONS: higher = more signal
Format: numeric value only, no unit, no commentary.

Ask: Using known records, supply z-score for COC(=O)c1c(CC[C@@H](CO)NC(=O)N[C@H](Cn2cc(C3(O)CCCCC3)nn2)C(C)C)oc(C(C)=O)c1C(=O)OC
Reply: 0.74

Ask: Indicate its recorded z-score; the compound in question is COC(=O)C(CC#Cc1ccc2c(c1)[C@]1(C(=O)N2)[C@H](C(=O)N2CCN(c3ncccn3)CC2)[C@H]2C(=O)O[C@H](c3ccccc3)[C@H](c3ccccc3)N2[C@@H]1c1ccc(OCCO)cc1)C(=O)OC
Reply: -0.612

----------
Reported z-score values are given for each entry in this list.
TESTED_ON: Luciferin 4-monooxygenase (Photinus pyralis) (UniProt P08659)
Sequence (P08659 whole entry, looked up): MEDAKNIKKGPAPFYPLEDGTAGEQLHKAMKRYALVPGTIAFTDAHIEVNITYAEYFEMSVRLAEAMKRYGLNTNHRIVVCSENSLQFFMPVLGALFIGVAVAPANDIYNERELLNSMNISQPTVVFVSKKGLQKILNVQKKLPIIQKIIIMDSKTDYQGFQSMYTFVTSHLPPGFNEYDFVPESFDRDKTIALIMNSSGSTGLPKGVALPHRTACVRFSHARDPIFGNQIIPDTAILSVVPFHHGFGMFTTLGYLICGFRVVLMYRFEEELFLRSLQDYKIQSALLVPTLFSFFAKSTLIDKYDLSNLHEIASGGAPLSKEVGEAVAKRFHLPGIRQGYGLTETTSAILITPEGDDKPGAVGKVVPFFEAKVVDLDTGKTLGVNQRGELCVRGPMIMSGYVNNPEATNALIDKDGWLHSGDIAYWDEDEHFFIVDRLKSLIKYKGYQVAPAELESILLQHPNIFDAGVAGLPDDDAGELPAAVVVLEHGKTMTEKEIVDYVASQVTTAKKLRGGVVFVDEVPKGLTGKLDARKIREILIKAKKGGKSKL
TEST_DESCRIPTION: firefly luciferase enzyme inhibitors, primary screen, biochemical, luminescence, purified enzyme, 2006 set (AID 1141);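 also: cell-free assay with purified firefly luciferase at 100 ng per well in PBS; test concentration not given here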
STUDY_CONDITIONS: SteadyGlo luminescence, 30 min, higher = more signal, called active from +8 up or from −8 down
Activity calls are given as the source filed them.

The examples below pair each entry with its known result.
COMPOUND	z-score
CN(C)CCCNC(=O)[C@@]1(c2ccc([N+](=O)[O-])cc2)CC(=O)N(CC23CC4CC(CC(C4)C2)C3)[C@@H]1c1ccc(CO)cc1I	-1.46 (inactive)
C=C(COC)/C(=C/C[C@H](OC(C)=O)c1ccc(OCCO)cc1)c1cc(C(=O)OC)ccc1OC	-1.71 (inactive)
NCCCCCCNC(=O)[C@@H]1C[C@@H]2C(=O)N[C@@H](CCCCN)C(=O)N2[C@@H]1c1cccc(OCCO)c1	0.507 (inactive)

Continue with the compound presented below.
Ask: Fill in: z-score on Luciferin 4-monooxygenase (Photinus pyralis) (UniProt P08659), entry O=C1NC(=O)C2C1C=CC(C(O)c1c(F)cccc1Cl)N2Nc1ccc(Cl)cc1Cl (centres undefined)
Reply: 0.231 (inactive)

----------
TEST_DESCRIPTION: mitochondrial membrane potential change in A549 cells, profiling panel, cell-based, JC-1 fluorescence, basal, 24 h, 100 nL (AID 1138);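 also: A549 lung adenocarcinoma cells under basal conditions with no added stimulus; test concentration not given here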
STUDY_CONDITIONS: higher = more signal
EXPERIMENTAL_ENDPOINT: z-score
Write the number on its own, no unit after it.

See these solved cases before continuing.
COMPOUND	z-score
CCOc1cc(C(O)C2C=CC3C(=O)N(C)C(=O)C3N2Nc2ccccc2)ccc1O (configuration not stated)	-0.203
COCCCNC(=O)[C@@]1(Cc2ccccc2N=[N+]=[N-])N=C(c2ccc(OCCCO)cc2)O[C@H]1c1ccccc1	0.624
CCOC(=O)C[C@H]1[C@H](OC(=O)c2cc3ccccc3oc2=O)[C@@H](NC(=O)c2ccc(-c3ccccc3)cc2)c2cc(OCCCO)ccc2N1C(=O)c1ccccc1	-1.24
COc1cc2c(cc1O)C(C)N(Cc1ccc([N+](=O)[O-])o1)CC2 (configuration not stated)	0.275
CCOC(=O)[C@H]1[C@@H]2C(=O)N3CCC[C@H]3[C@H](O[Si](C(C)C)(C(C)C)C(C)C)[C@H]2C=C2CCN(S(=O)(=O)c3ccc(C)cc3)C[C@H]21	1.8
COC(=O)c1nc2oc1CC[C@@H](CO)NC(=O)N(C)Cc1cnnn1C[C@H](Cc1ccccc1)NC2=O	0.9
COc1ccc([Si](C)(C)[C@H]2[C@H](CCn3cc([C@H](O)c4ccccc4)nn3)O[C@@]3(C(=O)N(Cc4ccc(N5C(=O)c6cccc7cccc5c67)cc4)c4ccccc43)[C@@H]2C)cc1	2.81
C=CCC(OC(C)=O)[C@@H]1[C@@H](N(Cc2cc3ccccc3o2)C(=O)Cc2ccc(F)cc2)c2cc(OCCCO)ccc2N1C(=O)c1ccc2ccccc2c1 (some centres not stated)	1.08
COc1ccc(-c2nc(-c3ccccc3)c3c(c2C)CO[Si]3(C(C)C)C(C)C)cn1	-0.0772
CCOC(=O)C1=CC[C@@H](c2ccccc2C(F)(F)F)N(S(=O)(=O)c2ccc(C)cc2)[C@H]1c1ccc(C#N)cc1	-1.92

Ask: Annotate the compound NC(=O)N1C(=O)C2C(C1=O)C1C=C(CCCO)C2C(c2cccs2)N1Cc1cccc(OC(F)(F)F)c1 (configuration not stated) with its measured z-score.
Reply: 0.928

Ask: Let me know recorded z-score for COc1ccc(CN(C2=CC[C@@]3(C(N)=O)C(=O)C(Cl)=C(Cl)C(=O)[C@@]3(C#N)C2)S(=O)(=O)c2ccc(Br)cc2)cc1 , thanks.
Reply: -1.87

Ask: Read the entry CN1C(=O)C2C=CC(C(O)c3cccc(O)c3)N(Nc3ccccc3)C2C1=O (configuration not stated) and write its reported z-score.
Reply: 1.19

Data origin: PubChem BioAssay
